# Tested on: Wild type
# assay details: S. aureus survival, RN4220 and DeltatarO strains – OD600, teichoic acid synthesis inhibitors, primary screen (AID 463173)
# test conditions: S. aureus RN4220 wild type/DeltatarO growth, OD600, 18 h, screened at 18.75 µg/mL (by protocol)
The whole screen tested about 52,000 compounds, of which about 1,700 (3.3%) were called active. No stated cut-off is given here; in the data, active means survival mostly below about 52% (no sharp cut-off); inactive means mostly above about 56%. The full list was thinned out, with actives kept by preference.
Classes used: active, inactive

>  <compound>
Cc1cccc(N2CCN(Cc3nnc(-c4ccccc4C)o3)CC2C)c1 (stereo not given)

>  <measured on>
Wild type

>  <label class>
inactive

$$$$
>  <compound>
CC(C)c1cc(-c2nc(-c3ccccc3)no2)n[nH]1

>  <measured on>
Wild type

>  <label class>
inactive

$$$$
>  <compound>
CCc1ccc(-c2nc(CS(=O)CC(=O)NCc3ccc(F)cc3)c(C)o2)cc1 (stereo not given)

>  <measured on>
Wild type

>  <label class>
inactive

$$$$
>  <compound>
Cn1cnc2c(=O)oc3ccc(S(=O)(=O)N4CCN(c5cccc(C(F)(F)F)c5)CC4)cc3c21

>  <measured on>
Wild type

>  <label class>
inactive

$$$$
>  <compound>
Cn1cnc2c(=O)oc3ccc(S(=O)(=O)N4CCN(c5cccc(Cl)c5)CC4)cc3c21

>  <measured on>
Wild type

>  <label class>
active

$$$$
>  <compound>
CCC(Sc1nc2ccncc2[nH]1)C(=O)Nc1cc(Cl)ccc1C (stereo not given)

>  <measured on>
Wild type

>  <label class>
inactive

$$$$
>  <compound>
N#Cc1ccccc1NC(=O)C(=O)NCCc1csc2nc(-c3cccc(F)c3)nn12

>  <measured on>
Wild type

>  <label class>
inactive

$$$$
>  <compound>
c1ccc(C(c2ccccc2)N2CCN(Cc3nnnn3Cc3ccc4c(c3)OCO4)CC2)cc1

>  <measured on>
Wild type

>  <label class>
inactive

$$$$
>  <compound>
CCOc1ccccc1NC(=O)CSC1=Nc2ccccc2C2=NC(CC(=O)NC3CCCCC3)C(=O)N12 (stereo not given)

>  <measured on>
Wild type

>  <label class>
inactive

$$$$
>  <compound>
COc1ccc(N2CCN(CCCNC(=O)Cn3c(-c4cccs4)cc4ccccc43)CC2)cc1

>  <measured on>
Wild type

>  <label class>
inactive

$$$$

---

The following molecules are listed with their measured survival values.
# Tested on: Wild type
# assay details: S. aureus survival, RN4220 and DeltatarO strains – OD600, teichoic acid synthesis inhibitors, primary screen (AID 463173)
# test conditions: S. aureus RN4220 wild type/DeltatarO growth, OD600, 18 h, stronger effect = lower value, screened at 18.75 µg/mL (by protocol)
The whole screen tested about 52,000 compounds, of which about 1,700 (3.3%) were called active. The list comes from a sample in which actives are over-represented; it also holds close analogues and randomly drawn compounds.
quantity measured: survival (%)

>  <molecule>
Cc1ccc2ccc3cc(C(=O)N4CCN(c5ccccc5)CC4)nc3c2[nH]1

>  <unit abbrev>
%

>  <recorded number>
128

$$$$
>  <molecule>
O=C(CCC1N=C2c3ccccc3N=C(SCC(=O)Nc3ccccc3F)N2C1=O)NCc1ccccc1 (stereo not given)

>  <unit abbrev>
%

>  <recorded number>
76

$$$$
>  <molecule>
Cc1ccc(NC(=O)Cn2cc(S(=O)(=O)N3CCCC3)c(S(=O)(=O)N3CCCC3)c2)cc1F

>  <unit abbrev>
%

>  <recorded number>
126

$$$$
>  <molecule>
COc1cccc(-n2c(SCC(=O)Nc3cc(C)ccc3C)nc3c(oc4ccccc43)c2=O)c1

>  <unit abbrev>
%

>  <recorded number>
96

$$$$
>  <molecule>
COc1ccc(CC(=O)NCCc2csc(-c3cccc(C)c3)n2)cc1

>  <unit abbrev>
%

>  <recorded number>
74

$$$$
